Recorded efficacy (beetle larvae killed) values for a group of compounds are listed next.
# Test system: Phaedon cochleariae
# ASSAY SUMMARY: Phaedon cochleariae spray test
# Type: in vivo
# CONDITION DETAILS: application rate 500 g/ha, after 7 days, Chinese cabbage leaf discs
Hi! Could you send only the number? It should be in %, unit omitted.

As a guide, the following entries are already answered.
COMPOUND	UNITS SYMBOL	efficacy (beetle larvae killed)
N#Cc1ccc(CNC(=O)c2cc(-c3ccc(OC(F)(F)C(F)F)cc3)cc(NC(=O)C3CC3)n2)cc1	%	100
CC(C)C(=O)Nc1cc(-c2ccc(C(F)(F)F)cc2)cc(C(=O)NCc2c(F)cc(C#N)cc2F)n1	%	83
N#Cc1ccc(CNC(=O)c2cc(-c3ccc(OC(F)(F)F)cc3)cc(NC(=O)CC(F)(F)F)n2)cc1	%	100

Record CCNC(=O)c1cc(-c2ccc(C(F)(F)F)cc2)cc(NC(=O)C2CC2)n1 , field efficacy (beetle larvae killed): 83

Record N#Cc1ccc(CNC(=O)c2cc(-c3ccc(SC(F)F)cc3)cc(NC(=O)C3CC3)n2)cc1 , field efficacy (beetle larvae killed): 100

Record O=C(NCc1ccc(C(F)(F)F)cc1F)c1cc(-c2ccc(OC(F)(F)F)cc2)cc(NC(=O)C2CC2)n1 , field efficacy (beetle larvae killed): 83

###

# ASSAY SUMMARY: log P by HPLC on reversed-phase column (C 18), EEC Directive 79/831 Annex V.A8
# Assay type: physicochemical
# CONDITION DETAILS: log P, neutral range; HPLC on reversed-phase column (C 18), 55° C.
Recorded LOGP_NEUTRAL values for a group of compounds are listed next.
Provide a numeric answer; units are not to be included.

As a guide, the following entries are already answered.
COMPOUND	LOGP_NEUTRAL
N#Cc1ccc(CNC(=O)c2cc(-c3ccc(OC(F)(F)F)cc3)cc(NC(=O)C3CC(F)(F)C3)n2)cc1 [Example I-213]	4.02
O=C(NCc1ccc(Cl)cc1F)c1cc(-c2ccc(OC(F)(F)F)cc2)cc(NC(=O)C2CC2)n1 [Example I-067]	4.60
N#Cc1c(F)cc(CNC(=O)c2cc(-c3ccc(OC(F)(F)F)cc3)cc(NC(=O)C3CC3)n2)cc1F [Example I-111]	4.02
CC(C)C(=O)Nc1cc(-c2ccc(C(F)(F)F)cc2)cc(C(=O)NCc2ccc(C#N)cc2F)n1 [Example I-078]	3.96

Record CC(C)C(=O)Nc1cc(-c2ccc(OC(F)(F)F)cc2)cc(C(=O)NCc2cc(F)c(C#N)c(F)c2)n1 [Example I-073] , field LOGP_NEUTRAL: 4.21

Record CC(C)C(=O)Nc1cc(-c2ccc(C(F)(F)F)cc2)cc(C(=O)NCc2cc(F)c(C#N)cc2F)n1 [Example I-071] , field LOGP_NEUTRAL: 4.08

Record N#Cc1ccc(CNC(=O)c2cc(-c3ccc(Cl)cc3)cc(NC(=O)C3CC3)n2)cc1 [Example I-020] , field LOGP_NEUTRAL: 3.54

Record N#Cc1ccc(NC(=O)c2cc(-c3ccc(Cl)cc3)cc(NC(=O)C3CC3)n2)cc1 [Example I-022] , field LOGP_NEUTRAL: 4.29

Record C[C@H](NC(=O)c1cc(-c2ccc(C(F)(F)F)cc2)cc(NC(=O)C2CC2)n1)c1ccc(C(F)(F)F)cc1 [Example I-060] , field LOGP_NEUTRAL: 4.82

Record N#Cc1ccc(CNC(=O)c2cc(-c3ccc(C(F)(F)F)cc3)cc(NC(=O)c3ccccc3Cl)n2)cc1 [Example I-047] , field LOGP_NEUTRAL: 4.15

Record O=C(NCC1CC1)c1cc(-c2ccc(C(F)(F)F)cc2)cc(NC(=O)C2CC2)n1 [Example I-012] , field LOGP_NEUTRAL: 3.66

Record N#Cc1ccc(CNC(=O)c2cc(-c3ccc(C4(C(F)(F)F)CC4)cc3)cc(NC(=O)C3CC3)n2)cc1 [Example I-193] , field LOGP_NEUTRAL: 3.95

Provenance of the data: patent US20190053492A1
